Cited source: PubChem BioAssay (NCI)

system: HOP-92 NSCLC; assay: NCI tumour cell line growth inhibition, 48 h
# Lookup of reported TGI keyed by entry

Consider the worked cases shown below.
[[record]]
substance_smiles = "N#C/C(=C\\Nc1ccccn1)C(=O)c1ccco1"
metric = "TGI"
reported = "> 100 µM"

[[record]]
substance_smiles = "Cc1[nH]c(=O)nc2nc3ccc(Cl)cc3c(NC(C)(CO)CO)c12"
metric = "TGI"
reported = "> 100 µM"


Shifting focus to the molecule that follows.
Incoming: Suppose we examine the molecule C[C@H](N)C(=O)N[C@@H]1[C@H]2C(=C(O)C[C@@H](O)[C@@H]2O)C(=O)O[C@@H]1C ; what TGI value has been reported?
Outgoing: > 100 µM

* * *

Entries and their TGI values follow.
test system: TK-10 renal; assay: NCI tumour cell line growth inhibition, 48 h

As a guide, the following entries are already answered.
[[record]]
molecule = "O=C(O)c1ccc2c3c(ncnc13)-c1ccccc1C2=O"
assay_target = "TK-10 renal"
reported = "> 100 µM"

[[record]]
molecule = "CC(C)(c1ccc(Oc2ccc(C#N)c(C#N)c2)cc1)c1ccc(Oc2ccc(C#N)c(C#N)c2)cc1"
assay_target = "TK-10 renal"
reported = "> 100 µM"

[[record]]
molecule = "CCCCCCCCC(O)C#CC(N)=O (stereo not given)"
assay_target = "TK-10 renal"
reported = "30.8 µM"

[[record]]
molecule = "COc1ccc2nc(NCN3C(=O)c4ccccc4C3=O)sc2c1"
assay_target = "TK-10 renal"
reported = "> 100 µM"


# ---- query molecule ----
Incoming: Record request: TGI value, item CC1=Nc2c(C#N)ncn2N=C(C)C1
Outgoing: > 100 µM

* * *

tested on: OVCAR-4 ovarian; assay: NCI tumour cell line growth inhibition, 48 h
// TGI lookup, one value per entry

[[record]]
compound = "COC(=O)[C@@]1(O)CC(C)C=C1C=O (stereo partly drawn)"
reported = "> 100 µM"

[[record]]
compound = "C=CCCC(On1c(-c2ccc(Cl)cc2)csc1=S)c1ccccc1 (stereo not drawn)"
reported = "> 100 µM"


Now turn to the next compound.
Incoming: Hello, I am looking for reported TGI with OVCAR-4 ovarian for CCOC(=O)C1C[C@H]2CO[C@H](c3ccccc3)N2C1=O (stereo partly drawn) . Could you help?
Outgoing: > 100 µM

* * *

tested on: OVCAR-4 ovarian; assay: NCI tumour cell line growth inhibition, 48 h
metric: TGI

Incoming: I am curious: what TGI value has been reported for C=CC[C@@H]1C=C[C@@H](C(=O)OC)n2c(=O)n(-c3ccccc3)c(=O)n21 ?
Outgoing: > 100 µM

Incoming: Look at this molecule and give its reported TGI. COc1ccc(-c2nnc(-c3ccncc3)o2)cc1
Outgoing: > 100 µM

Incoming: Field request: TGI | item: Nc1nc(NC2C=C(CO)C(O)C2O)c([N+](=O)[O-])c(=O)[nH]1 (stereo not drawn)
Outgoing: > 100 µM

* * *

tested on: MALME-3M melanoma; test: NCI tumour cell line growth inhibition, 48 h
metric: TGI

Solved cases (3 shown):
[[record]]
compound = "CC1(C)O[C@H]2OC(CO)C(OS(C)(=O)=O)[C@H]2O1 (stereo not given in full)"
assay_target = "MALME-3M melanoma"
metric = "TGI"
reported = "> 100 µM"

[[record]]
compound = "O=C(Nc1ccc2[nH]c(C(=O)N3CC(CCl)c4c3cc([N+](=O)[O-])c3ccccc43)cc2c1)c1cc2ccccc2o1 (stereo not given)"
assay_target = "MALME-3M melanoma"
metric = "TGI"
reported = "> 1100 µM"

[[record]]
compound = "C=CCCC(On1c(-c2ccc(Cl)cc2)csc1=S)c1ccccc1 (stereo not given)"
assay_target = "MALME-3M melanoma"
metric = "TGI"
reported = "98.4 µM"


Incoming: Report TGI for CC1C2CC(CC2N)C1(C)C (stereo not given) please.
Outgoing: > 100 µM

Incoming: What value of TGI has been recorded for this entry: COc1cc2c(cc1OC)C(CC1(O)CCCCC1)N(S(=O)(=O)c1ccc(C)cc1)CC2 (stereo not given)
Outgoing: > 10 µM

Incoming: // returns reported TGI for input O=C(Cc1ccccc1)N=Nc1c(O)[nH]c2ccccc12
Outgoing: > 100 µM

Incoming: Requested field: TGI. Item: C[C@]1(C(=O)O)N[C@H](C(=O)O)CS1
Outgoing: > 1000 µM

Incoming: Sample COC(=O)[C@@]1(O)CC(C)C=C1C=O (stereo not given in full) — what was its TGI?
Outgoing: > 100 µM

Incoming: Quick one: TGI of CCCCCCCCC(O)C#CC(N)=O (stereo not given) ?
Outgoing: 31.8 µM

Incoming: Could you tell me which TGI is on file for O=C(O)c1ccc([S-])cc1.[Au+].c1ccc(CN2[CH-]N(Cc3ccccc3)C(c3ccccc3)=C2c2ccccc2)cc1 ?
Outgoing: 0.797 µM

Incoming: # lookup: TGI of Cc1oncc1NC1=CC(=O)C(=O)c2ccccc21
Outgoing: 8.69 µM

Incoming: Field request: TGI | item: CC1=C(C(=O)Nc2ccc([N+](=O)[O-])cc2)C(c2ccccc2O)C(C(=O)Nc2ccc([N+](=O)[O-])cc2)=C(C)N1
Outgoing: 49.4 µM

Incoming: # lookup: TGI of C[C@H](CN1CC(=O)NC(=O)C1)N1CC(=O)NC(=O)C1
Outgoing: > 100 µM

Incoming: Which measured TGI value corresponds to Cc1cc(Oc2cnc(=O)[nH]c2)cs1 ?
Outgoing: > 100 µM

Incoming: Suppose we examine the compound C/C(=N\NC(=O)c1cccnc1)c1cccc(/C(C)=N/NC(=O)c2cccnc2)n1.CC(=O)[O-].CC(=O)[O-].[Zn+2] ; what TGI value has been reported?
Outgoing: > 79.9 µM

* * *

system: UO-31 renal; assay: NCI tumour cell line growth inhibition, 48 h
Recorded TGI, one value per entry.
A number alone suffices; assume µM.

Use the examples below as a reference point.
[[record]]
molecule = "CCOc1cc2c(cc1O)CC[C@@H]1[C@@H]2CC[C@]2(C)C(OS(=O)OC3CC[C@@H]4[C@H]5CCc6cc(O)c(OCC)cc6[C@@H]5CC[C@@]34C)CC[C@@H]12 (stereo partly specified)"
metric = "TGI"
units = "µM"
reported = 27.4

[[record]]
molecule = "COc1c(-c2cccs2)oc2c(CC(=O)O)cccc2c1=O"
metric = "TGI"
units = "µM"
reported = 48.9

[[record]]
molecule = "Cc1[nH]c(=O)nc2nc3ccc(Cl)cc3c(NC(C)(CO)CO)c12"
metric = "TGI"
units = "µM"
reported = 10.4

[[record]]
molecule = "COc1ccc(-c2cn(-c3cccc(C(=O)/C=C/c4ccc(O)c(OC)c4)c3)c(=O)[nH]2)cc1"
metric = "TGI"
units = "µM"
reported = 40.3


Incoming: Entry under review: COc1cc2c(cc1OC)-c1ccc3cc4c(cc3c1N(CCN(C)C)C2)OCO4 . Reported TGI?
Outgoing: 5.77

* * *

In this section we review reported TGI values for a set of molecules.
test system: HCC-2998 colon; assay: NCI tumour cell line growth inhibition, 48 h

Examples with answers:
[[record]]
molecule = "O=C(NN1C(=O)CSC1c1ccco1)c1ccncc1 (stereo not drawn)"
reported = "> 100 µM"

[[record]]
molecule = "CN(C(=O)C12C3(C(=O)C(C)(C)C)C4C5(C#N)C3C1(C(=O)C(C)(C)C)C5C42C(=O)C(C)(C)C)C(C)(C)C (stereo not drawn)"
reported = "> 50 µM"


Here's the next entry for you.
Incoming: Bench note: what TGI did Cn1c(N=[N+]=[N-])cc(=O)n(C)c1=O show?
Outgoing: > 100 µM

* * *

system: NCI-H522 lung; test: NCI tumour cell line growth inhibition, 48 h
metric: TGI (µM)
Report the figure in µM without appending any unit label.

[[record]]
compound = "COC(=O)[C@@]12OC[C@]34C([C@@H](O)C1O)[C@@]1(C)CC(=O)C(O)=C(C)C1C[C@H]3OC(=O)[C@H](OC(=O)/C=C(/c1ccccc1)C(F)(F)F)[C@H]42 (stereo partly specified)"
metric = "TGI"
units = "µM"
reported = 13.7

[[record]]
compound = "COc1cc(/C=c2/c3ccccc3n3c2cc(-c2ccccc2)[n+]3C)cc(OC)c1OC"
metric = "TGI"
units = "µM"
reported = 9.6


Next compound, please.
Incoming: Given CC1(C)CCC[C@]2(C)c3cc(O)ccc3CC[C@@H]12 , state its recorded TGI.
Outgoing: 47.4

* * *

Quick reference for TGI among some compounds
test system: 786-0 renal; experiment: NCI tumour cell line growth inhibition, 48 h
Provide only the numeric value, understood in µM.

[[record]]
compound = "CCCCCCCC(=O)OCC(C[As](=O)(O)O)OC(=O)CCCCCCC (configuration not stated)"
units = "µM"
reported = 30.9

[[record]]
compound = "O=C(O)c1ccc([S-])cc1.[Au+].c1ccc(CN2[CH-]N(Cc3ccccc3)C(c3ccccc3)=C2c2ccccc2)cc1"
units = "µM"
reported = 1.59

[[record]]
compound = "COP(=O)(OC)c1ccc(NCc2cc(O)ccc2O)cc1"
units = "µM"
reported = 58.1

[[record]]
compound = "O=[N+]([O-])c1ccc2nc(/C=C(\\O)c3ccccc3)c(/C=C(\\O)c3ccccc3)nc2c1"
units = "µM"
reported = 44.3

[[record]]
compound = "CCC/C(Cl)=N\\OC(=O)Nc1ccc(F)c([N+](=O)[O-])c1"
units = "µM"
reported = 40


With those in mind, consider the next compound.
Incoming: Which TGI reading was recorded for the compound CCCCCC(O)(CCCCC)CCCCCCCCC1=C(O)c2ccccc2C(=O)C1=O ?
Outgoing: 30.5
